Test system: SNB-75 CNS
TEST DETAILS: NCI-60 one-dose screen, 48 h
MEASUREMENT PARAMETERS: 10 µM unless noted
About 83,000 compounds went through this panel and 20% of them were active in at least one assay; those are over-represented in the sample as a whole. Active and inactive are the calls of the source. The calls were made as follows: active = growth percent below 10; inactive = the rest.
Return exactly one item of active, inactive

In: Short answer needed: outcome of this test for C#C[C@]1(O)CC[C@H]2[C@@H]3CC=C4c5sc(-c6ccc(O)c(O)c6)nc5CC[C@]4(C)[C@H]3CC[C@@]21C ?
Out: active

In: Short answer needed: outcome of this test for N=C1N=C(SCc2nc3ccccc3[nH]2)NC(=O)/C1=C/c1ccc(Cl)cc1 ?
Out: inactive

In: Short answer needed: outcome of this test for COc1ccc(C(=O)/C=C/c2cccnc2)cc1S(N)(=O)=O ?
Out: inactive

In: Short answer needed: outcome of this test for Cc1cccc(-c2nc(Nc3ccc(C)c(S(N)(=O)=O)c3)c3ccccc3n2)c1 ?
Out: inactive

In: Short answer needed: outcome of this test for CCCSc1nc(NCCc2c[nH]c3ccccc23)c(C#N)c(-c2ccc(F)cc2)n1 ?
Out: inactive

In: Short answer needed: outcome of this test for Cc1ccc(-c2nc(C#N)c(S(=O)(=O)N3CCN(S(=O)(=O)c4ccccc4)CC3)o2)cc1 ?
Out: inactive

In: Short answer needed: outcome of this test for COc1ccc(C2CC(c3ccc(S(=O)(=O)NCCNc4nc(Nc5ccc(F)cc5)nc(N(C)C)n4)cc3)=Nc3c(N)nc(N)nc3N2)cc1 (stereo not drawn) ?
Out: inactive

In: Short answer needed: outcome of this test for CC1(C)CC[C@]2(C(=O)O)CC[C@]3(C)C(=CCC4[C@@]5(C)C[C@@H](O)[C@@H]6OC(c7cccc(Br)c7)OC[C@@]6(C)C5CC[C@]43C)C2C1 (stereo partly drawn) ?
Out: inactive

* * *

Test system: SK-MEL-5 melanoma
TEST DETAILS: NCI-60 one-dose screen, 48 h (100 = growth as untreated, 0 = no growth, -100 = all killed)
MEASUREMENT PARAMETERS: 10 µM unless noted
Experimental: Growth inhibition of the SK-MEL-5 human tumor cell line is measured as a screen for anti-cancer activity. Cells are grown in 96 well plates and exposed to the test compound for 48 hours. Compounds are tested at a single concentration, which is 10^-5 M for most compounds. The reported endpoint is percent growth (GI% or GIPRCNT), where numbers from 0 - 100% represent growth inhibition, and numbers from -100% - 0 represent cell death. For example, a value of 40 represents 60% growth inhibition. […]
About 83,000 compounds went through this panel and 20% of them were active in at least one assay; those are over-represented in the sample as a whole.
QUANTITY MEASURED: growth (%)
Hi! Could you send only the number? It should be in %, unit omitted.

The compound listed as O=C(c1ccccc1)C(c1c[nH]c2ccccc12)c1c[nH]c2ccccc12 has a reported growth of 92.5

The compound listed as Cn1cc(-c2cc(N)n3nc(-c4cn(C)c5ccc(Cl)cc45)cc3n2)c2ccccc21 has a reported growth of 98.5

The compound listed as O=c1[nH]c2ccccc2cc1CSc1nccc(-c2ccc3ccccc3c2)n1 has a reported growth of 57.2

The compound listed as Cc1cc2nc3c4ccccc4n(CCCN(C)C)c3nc2cc1C has a reported growth of -94.4

The compound listed as C=Cn1cc(C(=O)O)c(=O)c2cc(F)c(N3CCN(c4nccc(-c5nccs5)n4)CC3)cc21 has a reported growth of -47.7

The compound listed as COc1cc2c(c(OC)c1OC)C(=O)CC(c1cccc(NC(=O)[C@@H](N)CC(C)C)c1)O2 (stereo partly specified) has a reported growth of 96.7

The compound listed as COc1ccc(NC(=O)Cn2c3c(sc2=O)[C@H]2[C@@H](O)[C@@H](O)[C@H](O)[C@@H]2CS3)cc1 has a reported growth of 106

The compound listed as Cc1ccc(C(=O)C(c2c[nH]c3ccccc23)c2c[nH]c3ccccc23)cc1 has a reported growth of 83

The compound listed as Cc1ccc(C(=O)NN2C(=O)/C(=C/C=C/c3ccc([N+](=O)[O-])o3)SC2=S)cc1 has a reported growth of -100

The compound listed as Cc1cc(=O)oc2cc(OCCCOc3ccc(/C=C/C(=O)Nc4ccccc4N)cc3)ccc12 has a reported growth of -91.2

The compound listed as Nc1nc(C(F)(F)F)cs1 has a reported growth of 104

The compound listed as CN(C)c1nc(NCCNS(=O)(=O)c2ccc(C3=Nc4c(N)nc(N)nc4NC(c4ccc(C(F)(F)F)cc4)C3)cc2)nc(Nc2ccc(F)cc2)n1 (stereo unspecified) has a reported growth of -77.1

The compound listed as C#CCOc1cc(N(CC)CC)ccc1C(C(=O)NC(C)(C)C)N(C(=O)C1CCc2cc(F)ccc2O1)c1ccccc1F (stereo unspecified) has a reported growth of 17.3

The compound listed as O=C(O)c1ccc(-c2ccc(/C=N/NC(=O)c3[nH]c4ccc(Br)cc4c3-c3ccccc3)s2)cc1 has a reported growth of -49.6

The compound listed as C=C1CCC2C3(C)COC(c4cc(F)cc(F)c4)OC3CCC2(C)C1CC(O)C1=CCOC1=O (stereo unspecified) has a reported growth of 77.8

The compound listed as COc1cc2c(c(OC)c1OC)C(=O)CC(c1cccc(NC(=O)c3cccc([N+](=O)[O-])c3)c1)O2 (stereo unspecified) has a reported growth of -6.2

The compound listed as Cc1c(C(=O)NNC(=O)c2ccc(Cl)cc2)nnn1-c1ccc(Br)cc1 has a reported growth of 97.7

The compound listed as COc1ccc2c(c1)c(-c1cc3nc(-c4cn(C)c5ncc(Br)cc45)cc(N)n3n1)cn2C has a reported growth of -88.1

The compound listed as COc1ccc(N2N=C(c3ccc4c(c3)OCO4)CC2c2cccc(NC(=O)CCNS(=O)(=O)c3ccc(Cl)cc3)c2)cc1 (stereo unspecified) has a reported growth of 24.2

The compound listed as COc1ccc(/C=C/c2nc3ccccc3c(=O)n2CC(=O)Nc2ccc(OC)cc2)cc1 has a reported growth of 92.3

The compound listed as O=C1CCCc2cc(OCC(=O)N3CCCCC3)ccc2N1 has a reported growth of 104

The compound listed as O=C(/C=C/Nc1ccc(Cl)cc1)c1ccc2c(c1)Nc1ccccc1S2 has a reported growth of 71.3

The compound listed as Cc1ccc(C(SCCNCc2cc(N(C)C)ccn2)(c2ccccc2)c2ccccc2)cc1 has a reported growth of -100

The compound listed as O=C(CSc1nc2ccccc2c(=O)[nH]1)NCCN1CCCCC1 has a reported growth of 100

The compound listed as COc1cc2nc(SCc3ccccc3)n(-c3ccc(Cl)cc3)c(=O)c2cc1OC has a reported growth of 82.9

The compound listed as COc1ccc(-c2ccc(SCC(=O)NCCc3ccc(S(N)(=O)=O)cc3)nn2)cc1 has a reported growth of 52.9

The compound listed as CC1(C)CC[C@]2(C(=O)O)CC[C@]3(C)C(=CCC4[C@@]5(C)C[C@@H](O)[C@@H]6OC(c7ccccc7F)OC[C@@]6(C)C5CC[C@]43C)C2C1 (stereo partly specified) has a reported growth of -34.6

The compound listed as CC1(C)CC[C@]2(C(=O)O)CC[C@]3(C)C(=CCC4[C@@]5(C)C[C@@H](O)[C@@H]6OC(c7ccc(F)cc7)OC[C@@]6(C)C5CC[C@]43C)C2C1 (stereo partly specified) has a reported growth of 17.2

The compound listed as CCCCn1c(O)c(N=Nc2nc(-c3cc4ccccc4oc3=O)cs2)c2cc(Br)ccc21 has a reported growth of 98.3

The compound listed as C/C(=N\N=C1/C(=O)Nc2ccccc21)c1ccc2c(c1)Nc1ccccc1S2 has a reported growth of 42

The compound listed as CC12CC[C@@H]3[C@]4(C)COC(c5cn[nH]c5-c5cccc(Cl)c5)O[C@@H]4CC[C@@]3(C)[C@@H]1CC(C1=CCOC1=O)O2 (stereo partly specified) has a reported growth of 8.92
